B1: HDV Ribozyme (parent)
chain: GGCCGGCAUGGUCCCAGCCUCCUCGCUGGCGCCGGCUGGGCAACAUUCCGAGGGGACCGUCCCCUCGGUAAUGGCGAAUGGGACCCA

- Variants of: B1
- assay summary: self-cleavage, relative activity (ratio to wild type); higher = more cleavage; co-transcriptional
metric: self-cleavage

chain	assay value
GGCCGCCAUGGUCCCAGCCUCUUCGCUGGCGCCGGCUGGGCAACAUUCCGAGGGGACCGUCCCCUCGGUAAUGGCGAAUGGGACCCA [G6C C22U]	0.185
GGCCGGCAUGGUCCCAGCCUGCUCGCUGGCGCCGGCUGGGCAACAUUCCGAGGGGACCGUCCCCUCGCUAAUGGCGAAUGGGACCCA [C21G G68C]	0.0554
GGGCGGCAUGGUGCCAGCCUCCUCGCUGGCGCCGGCUGGGCAACAUUCCGAGGGGACCGUCCCCUCGGUAAUGGCGAAUGGGACCCA [C3G C13G]	0.0504
GGCCGGCAUGGUCCCAGCCUCCUCGCCGUCGCCGGCUGGGCAACAUUCCGAGGGGACCGUCCCCUCGGUAAUGGCGAAUGGGACCCA [U27C G29U]	0.145
GGCCGGGAUGGUCCCAGCCUCCUCGCUGGCGCCGGCUGGGCAACAUUCCGAGGGGACCGUCCCCUCGGUAAUGGCAAAUGGGACCCA [C7G G76A]	0.172
GGCCGGCAUGGUCCCAGCCUCCUCGCUGGCGCCGGCUGGGCAACAUUCCGAGGGGACCGUCCCCUCAGUAAUGGCGAAUGGGACGCA [G67A C85G]	1.1
GGCCGGCAUGGUCCCAGUCUCCUCCCUGGCGCCGGCUGGGCAACAUUCCGAGGGGACCGUCCCCUCGGUAAUGGCGAAUGGGACCCA [C18U G25C]	0.201
GGCCGGCAUGGUCCCAGCCUCCUCGCUGGCGCCGGCUGGGCAACAUUCCGAGGGGACCGUCCCCUCGGUAAUGGCGAAUUGGACCUA [G80U C86U]	0.281
GGCCGGCAUGGUCCCAGCCUCCUCGCUUGCGCCGGCUGGGCAACAUUCCGAGGGGACCGUCCCCUCGGUAAUGGCUAAUGGGACCCA [G28U G76U]	0.187
GGCCGGCAUGGUCCCCGCCUCCUCGCUGGCGCCGGCUGAGCAACAUUCCGAGGGGACCGUCCCCUCGGUAAUGGCGAAUGGGACCCA [A16C G39A]	0.156
GGCCGGCUUGGUCCCAGCCUCCUCGCUGGCGCCGGCUGGGCAACAUUCCGAGGGAACCGUCCCCUCGGUAAUGGCGAAUGGGACCCA [A8U G55A]	0.749
GGCCGGCAUGGUCCCAGCCUCCUCGCUGGCGCCGUCUGGGCAACAUUCCGAGGGGCCCGUCCCCUCGGUAAUGGCGAAUGGGACCCA [G35U A56C]	0.358
GGCCGGCAUGGUCCCAGGCUCCUCGCUGGCGCCGGCUAGGCAACAUUCCGAGGGGACCGUCCCCUCGGUAAUGGCGAAUGGGACCCA [C18G G38A]	0.0978
GGCCGGCAUGGUCCCAGCCUCCUAGCUGGCGCCGGCUGGGCAACAUUCCGAGGGGACCGUCCCCUCGGUAAUGGCAAAUGGGACCCA [C24A G76A]	0.769
GGCCGGCAUGGUCCCAGCCUCCUCGCUGGCGCCGGCUGGGCAACAUUCCGCGGGGACCGUCCCCUCGGUAAUGGCAAAUGGGACCCA [A51C G76A]	1.08
GGCCGGCAUGGUCCCAGCCUCCUCGCUGGUGCCGGCUGGGCAACAUUCCGAGUGGACCGUCCCCUCGGUAAUGGCGAAUGGGACCCA [C30U G53U]	0.697
GCCCGGCAUUGUCCCAGCCUCCUCGCUGGCGCCGGCUGGGCAACAUUCCGAGGGGACCGUCCCCUCGGUAAUGGCGAAUGGGACCCA [G2C G10U]	0.056
GGCCGGCAUGGUCCCAGCCUCCUCGCUGGCGCCGGCUGGGAAACAUUCCGAGGGGACCGUCCCCUCGAUAAUGGCGAAUGGGACCCA [C41A G68A]	1.01
GGCCGGCAUGGUCCCAUCCUCCUCGCUGGCGCCGGCUGGGCAACAGUCCGAGGGGACCGUCCCCUCGGUAAUGGCGAAUGGGACCCA [G17U U46G]	0.0554
GGCCGGCAUGGACCCAGCCUCCUCGCUGGCGCCGGCUGCGCAACAUUCCGAGGGGACCGUCCCCUCGGUAAUGGCGAAUGGGACCCA [U12A G39C]	0.0594
GGCCGGCAUGGUCCAAGCCUCCUCGCUGGCGCCGGCUGGGCAACAUUCCGACGGGACCGUCCCCUCGGUAAUGGCGAAUGGGACCCA [C15A G52C]	0.655
GGCCGGCAUGGUCCCAGCCUCCUCGCUGCCGCCGGCUGGGCAUCAUUCCGAGGGGACCGUCCCCUCGGUAAUGGCGAAUGGGACCCA [G29C A43U]	0.0519
